- tgt: Orexin/Hypocretin receptor type 1 (Homo sapiens) (UniProt O43613)
- Sequence (O43613 whole entry): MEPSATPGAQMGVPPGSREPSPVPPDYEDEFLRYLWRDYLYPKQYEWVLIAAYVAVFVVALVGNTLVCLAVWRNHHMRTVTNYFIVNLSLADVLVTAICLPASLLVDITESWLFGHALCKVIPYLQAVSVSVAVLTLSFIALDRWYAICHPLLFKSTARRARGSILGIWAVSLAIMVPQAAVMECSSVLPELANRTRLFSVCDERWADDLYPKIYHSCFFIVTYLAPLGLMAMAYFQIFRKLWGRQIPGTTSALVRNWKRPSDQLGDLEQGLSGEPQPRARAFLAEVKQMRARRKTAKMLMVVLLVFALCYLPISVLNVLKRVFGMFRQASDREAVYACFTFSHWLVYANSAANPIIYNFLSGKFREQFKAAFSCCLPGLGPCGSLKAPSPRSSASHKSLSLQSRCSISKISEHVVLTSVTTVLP
- protocol.details: Agonist activity at human OX1 receptor overexpressed in CHO-RD-HGA16 cells assessed as calcium mobilization at 10 uM after 15 mins by fluorescence assay relative to control
- Assay type: functional, cell-based
Calls of active or inactive are those of the source. No cut-off for these calls is given here. Where a SMILES comes first, the peptide text is derived from it.
measurement.name: Activity

>>> observed_value("CC(C)C[C@H](NC(=O)[C@@H](NC(=O)[C@H](CC(C)C)NC(=O)[C@H](C)NC(=O)CNC(=O)[C@H](C)NC(=O)[C@H](C)NC(=O)[C@H](Cc1cnc[nH]1)NC(=O)[C@H](CC(N)=O)NC(=O)CNC(=O)[C@H](C)NC(=O)CNC(=O)[C@H](Cc1cnc[nH]1)NC(=O)[C@H](CC(C)C)NC(=O)[C@H](CC(C)C)NC(=O)[C@H](CCC(=O)O)NC(=O)[C@@H](N)Cc1ccc(O)cc1)[C@@H](C)O)C(N)=O (H-YELLHGAGNHAAGALTL-NH2)")
"inactive"
>>> observed_value("CC[C@H](C)[C@H](NC(=O)CNC(=O)[C@H](C)NC(=O)[C@H](C)NC(=O)[C@H](Cc1cnc[nH]1)NC(=O)[C@@H](CC(N)=O)NC(=O)CNC(=O)[C@H](C)NC(=O)CNC(=O)[C@H](Cc1cnc[nH]1)NC(=O)[C@H](CC(C)C)NC(=O)[C@H](CC(C)C)NC(=O)[C@H](CCC(=O)O)NC(=O)[C@@H](N)Cc1ccc(O)cc1)C(=O)N[C@@H](CC(C)C)C(=O)N[C@H](C(=O)N[C@@H](CC(C)C)C(N)=O)[C@@H](C)O")
"inactive"
>>> observed_value("CC[C@H](C)[C@H](NC(=O)CNC(=O)[C@H](C)NC(=O)[C@H](C)NC(=O)[C@H](Cc1cnc[nH]1)NC(=O)[C@H](CC(N)=O)NC(=O)CNC(=O)[C@H](C)NC(=O)CNC(=O)[C@H](Cc1cnc[nH]1)NC(=O)[C@H](CC(C)C)NC(=O)[C@H](CC(C)C)NC(=O)[C@H](CCC(=O)O)NC(=O)[C@@H](N)Cc1ccc(O)cc1)C(=O)N[C@@H](CC(C)C)C(=O)N[C@@H](C(=O)N[C@@H](CC(C)C)C(N)=O)[C@H](C)O")
"inactive"
